Source: paper PMC4336329

Biological target: human ether-à-go-go-related gene (hERG) potassium channel (human, UniProt Q12809);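 note: peak tail current of the secondary pulse compared with the same well before compound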
Sequence (Q12809 whole entry, looked up): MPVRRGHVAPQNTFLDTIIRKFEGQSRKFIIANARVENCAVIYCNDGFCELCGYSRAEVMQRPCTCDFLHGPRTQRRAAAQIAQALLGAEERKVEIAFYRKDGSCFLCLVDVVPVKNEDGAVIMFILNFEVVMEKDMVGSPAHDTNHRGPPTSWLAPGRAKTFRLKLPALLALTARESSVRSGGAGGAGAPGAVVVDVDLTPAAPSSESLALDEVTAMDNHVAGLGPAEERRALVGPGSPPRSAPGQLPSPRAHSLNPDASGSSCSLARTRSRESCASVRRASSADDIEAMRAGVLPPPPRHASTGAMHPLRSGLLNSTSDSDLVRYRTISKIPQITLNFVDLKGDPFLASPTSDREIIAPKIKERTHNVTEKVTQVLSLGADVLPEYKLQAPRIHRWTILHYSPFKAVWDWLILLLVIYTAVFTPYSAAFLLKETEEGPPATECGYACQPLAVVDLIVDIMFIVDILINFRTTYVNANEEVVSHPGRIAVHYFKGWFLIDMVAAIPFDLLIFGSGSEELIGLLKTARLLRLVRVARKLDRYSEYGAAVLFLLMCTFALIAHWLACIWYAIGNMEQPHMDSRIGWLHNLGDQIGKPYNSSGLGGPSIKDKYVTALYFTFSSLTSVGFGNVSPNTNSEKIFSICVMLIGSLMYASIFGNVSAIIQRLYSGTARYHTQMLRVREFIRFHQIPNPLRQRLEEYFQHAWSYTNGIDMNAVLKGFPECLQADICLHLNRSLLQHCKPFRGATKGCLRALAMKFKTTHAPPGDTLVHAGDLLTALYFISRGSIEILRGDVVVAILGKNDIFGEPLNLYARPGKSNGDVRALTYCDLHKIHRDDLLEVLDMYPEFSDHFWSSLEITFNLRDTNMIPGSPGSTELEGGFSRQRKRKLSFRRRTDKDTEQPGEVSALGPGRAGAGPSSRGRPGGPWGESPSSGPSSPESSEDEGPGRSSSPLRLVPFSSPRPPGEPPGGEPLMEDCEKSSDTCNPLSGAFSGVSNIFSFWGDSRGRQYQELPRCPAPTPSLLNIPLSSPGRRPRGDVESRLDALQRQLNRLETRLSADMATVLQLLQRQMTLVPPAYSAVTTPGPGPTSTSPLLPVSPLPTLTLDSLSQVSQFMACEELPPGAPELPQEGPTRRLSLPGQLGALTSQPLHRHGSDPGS
Experiment: primary screen, population patch clamp on CHO cells stably expressing hERG; higher = less effect of the substance
Experimental: Briefly, Chinese hamster ovary (CHO) cells stably expressing the hERG channel were dislodged from tissue culture flasks and dispensed into PPC plates. […] During the recording, background leak currents were estimated by a 100 ms step to -80 mV from an initial holding potential of -70 mV and subtracted from the subsequent current measurement. The campaign was conducted in two phases using slight differences in recording protocol. […]
About 14,000 (4.5%) of roughly 310,000 compounds showed an effect of 50% or more. The effect is printed as a negative number. The sample as a whole holds a higher share of strong results than the screen did.
measured.parameter: hERG current change (%, negative = inhibition) at 10uM (%)
# value in %; strip the unit string

Look over these answered cases.
Query: What value of hERG current change (%, negative = inhibition) at 10uM has been recorded for this entry: "CCOc1cccc2sc(N(CCCN(C)C)C(=O)c3ccc(S(=O)(=O)N4CCc5ccccc5C4)cc3)nc12.Cl"
Response: 13.7

Query: What value of hERG current change (%, negative = inhibition) at 10uM has been recorded for this entry: CN(C)CCN(C(=O)c1ccc(S(=O)(=O)N(C)CC2CCCO2)cc1)c1nc2cc3c(cc2s1)OCO3.Cl (centres unmarked)
Response: -43.2

Query: What value of hERG current change (%, negative = inhibition) at 10uM has been recorded for this entry: O=C(NCC1CCCN(C(=O)c2cccc(C(F)(F)F)c2)C1)c1ccc(F)cc1 (centres unmarked)
Response: -8.13

Query: What value of hERG current change (%, negative = inhibition) at 10uM has been recorded for this entry: "CCOc1ccc2nc(N(CCCN(C)C)C(=O)c3ccc(C(=O)c4ccccc4)cc3)sc2c1.Cl"
Response: -35.5

Query: What value of hERG current change (%, negative = inhibition) at 10uM has been recorded for this entry: Cc1cc(CN2CCCC(CNC(=O)c3ccc(F)cc3)C2)cc(C)c1O (centres unmarked)
Response: -24.1

Query: What value of hERG current change (%, negative = inhibition) at 10uM has been recorded for this entry: Cc1cc(C)c2nc(N(CCN(C)C)C(=O)c3ccc(S(=O)(=O)N(C)CC4CCCO4)cc3)sc2c1.Cl (centres unmarked)
Response: -43.6

Query: What value of hERG current change (%, negative = inhibition) at 10uM has been recorded for this entry: CSc1ccc(CN2CCCC(CNC(=O)c3ccc(F)cc3)C2)cc1 (centres unmarked)
Response: -70.8

---
Query: What value of hERG current change (%, negative = inhibition) at 10uM has been recorded for this entry: "CCOc1cccc2sc(N(CCCN(C)C)C(=O)c3ccc(C(=O)c4ccccc4)cc3)nc12.Cl"
Response: -72.1
